# Test system: HOP-62 NSCLC
# procedureDetails: NCI tumour cell line growth inhibition, 48 h
Answer each item with its documented TGI.
Numbers only, in µM.

Examples with their reported TGI follow.
{"compound": "Cc1cc(-c2cc(O)ccc2Cl)cc2nnc(Nc3ccc(OCCN4CCCC4)cc3)nc12", "target": "HOP-62 NSCLC", "TGI (µM)": 3.79}
{"compound": "COC(C)(C)/C=C/c1[nH]c2ccccc2c1CC(=O)NCCc1cn(C(c2ccccc2)(c2ccccc2)c2ccccc2)cn1", "target": "HOP-62 NSCLC", "TGI (µM)": 34.4}
{"compound": "CC(=O)N1N=C(c2ccc(Nc3nc(Nc4ccc(F)cc4)nc(Nc4ccc(F)cc4)n3)cc2)CC1c1ccc(N(C)C)cc1 (centres undefined)", "target": "HOP-62 NSCLC", "TGI (µM)": 26}

Give TGI for all compounds that follow.
1. COC(=O)/C=C1/OC(c2ccccc2)=C(C)C1=O
2. COc1ccc2c(c1)/C(=C\c1c(Cl)[nH]c3ccccc13)C(=O)N2
3. Fc1ccc2c3c([nH]c2c1)CCN(Cc1ccccc1)C3
4. Nc1c(Cl)ncnc1NCCCCCCCCCCCCNc1ncnc(Cl)c1N
5. O=c1c(Cl)c(Cl)cnn1CCCl

1. 31.4
2. 17.9
3. 28.5
4. 6.82
5. 34.5

Give TGI for all compounds that follow.
1. C=C1C(=O)O[C@H]2C1C[C@@H](OC(C)=O)/C(C)=C/CC[C@@]1(C)O[C@H]21 (some centres undefined)
2. COC1(OC)C2(Cl)C(Cl)=C(Cl)C1(Cl)C1C2C2CC1(C(=O)O)c1ccccc12 (centres undefined)
3. O=C(Nc1ccc(Cl)cc1Cl)OC(Cn1cncn1)c1ccc(Cl)cc1Cl (centres undefined)
4. COc1ccccc1C(O)[C@@H]1C[C@@H]2[C@H]3CC[C@@](C)([C@@H]2O1)C3(C)C (some centres undefined)
5. CC(Nc1ccc(Cl)c(Cl)c1)c1ccncc1 (centres undefined)

1: 34.5; 2: 62.8; 3: 34.5; 4: 35.1; 5: 49.7

Give TGI for all compounds that follow.
1. CCNC(=O)OCc1c(COC(=O)NCC)c(-c2ccc(Cl)c(Cl)c2)n2c1CCC2
2. O=C(CSCC(=O)N/N=C\c1cccc([N+](=O)[O-])c1)N/N=C\c1cccc([N+](=O)[O-])c1
3. COc1ccc(/C=C2/SC(Nc3nc(-c4nc(NC5=NC(=O)/C(=C\c6ccc(OC)cc6)S5)sc4C)c(C)s3)=NC2=O)cc1

1: 23.8; 2: 16.3; 3: 4.92
